target: HPTP-β (Homo sapiens (Human))
Sequence (P23467 23-1997): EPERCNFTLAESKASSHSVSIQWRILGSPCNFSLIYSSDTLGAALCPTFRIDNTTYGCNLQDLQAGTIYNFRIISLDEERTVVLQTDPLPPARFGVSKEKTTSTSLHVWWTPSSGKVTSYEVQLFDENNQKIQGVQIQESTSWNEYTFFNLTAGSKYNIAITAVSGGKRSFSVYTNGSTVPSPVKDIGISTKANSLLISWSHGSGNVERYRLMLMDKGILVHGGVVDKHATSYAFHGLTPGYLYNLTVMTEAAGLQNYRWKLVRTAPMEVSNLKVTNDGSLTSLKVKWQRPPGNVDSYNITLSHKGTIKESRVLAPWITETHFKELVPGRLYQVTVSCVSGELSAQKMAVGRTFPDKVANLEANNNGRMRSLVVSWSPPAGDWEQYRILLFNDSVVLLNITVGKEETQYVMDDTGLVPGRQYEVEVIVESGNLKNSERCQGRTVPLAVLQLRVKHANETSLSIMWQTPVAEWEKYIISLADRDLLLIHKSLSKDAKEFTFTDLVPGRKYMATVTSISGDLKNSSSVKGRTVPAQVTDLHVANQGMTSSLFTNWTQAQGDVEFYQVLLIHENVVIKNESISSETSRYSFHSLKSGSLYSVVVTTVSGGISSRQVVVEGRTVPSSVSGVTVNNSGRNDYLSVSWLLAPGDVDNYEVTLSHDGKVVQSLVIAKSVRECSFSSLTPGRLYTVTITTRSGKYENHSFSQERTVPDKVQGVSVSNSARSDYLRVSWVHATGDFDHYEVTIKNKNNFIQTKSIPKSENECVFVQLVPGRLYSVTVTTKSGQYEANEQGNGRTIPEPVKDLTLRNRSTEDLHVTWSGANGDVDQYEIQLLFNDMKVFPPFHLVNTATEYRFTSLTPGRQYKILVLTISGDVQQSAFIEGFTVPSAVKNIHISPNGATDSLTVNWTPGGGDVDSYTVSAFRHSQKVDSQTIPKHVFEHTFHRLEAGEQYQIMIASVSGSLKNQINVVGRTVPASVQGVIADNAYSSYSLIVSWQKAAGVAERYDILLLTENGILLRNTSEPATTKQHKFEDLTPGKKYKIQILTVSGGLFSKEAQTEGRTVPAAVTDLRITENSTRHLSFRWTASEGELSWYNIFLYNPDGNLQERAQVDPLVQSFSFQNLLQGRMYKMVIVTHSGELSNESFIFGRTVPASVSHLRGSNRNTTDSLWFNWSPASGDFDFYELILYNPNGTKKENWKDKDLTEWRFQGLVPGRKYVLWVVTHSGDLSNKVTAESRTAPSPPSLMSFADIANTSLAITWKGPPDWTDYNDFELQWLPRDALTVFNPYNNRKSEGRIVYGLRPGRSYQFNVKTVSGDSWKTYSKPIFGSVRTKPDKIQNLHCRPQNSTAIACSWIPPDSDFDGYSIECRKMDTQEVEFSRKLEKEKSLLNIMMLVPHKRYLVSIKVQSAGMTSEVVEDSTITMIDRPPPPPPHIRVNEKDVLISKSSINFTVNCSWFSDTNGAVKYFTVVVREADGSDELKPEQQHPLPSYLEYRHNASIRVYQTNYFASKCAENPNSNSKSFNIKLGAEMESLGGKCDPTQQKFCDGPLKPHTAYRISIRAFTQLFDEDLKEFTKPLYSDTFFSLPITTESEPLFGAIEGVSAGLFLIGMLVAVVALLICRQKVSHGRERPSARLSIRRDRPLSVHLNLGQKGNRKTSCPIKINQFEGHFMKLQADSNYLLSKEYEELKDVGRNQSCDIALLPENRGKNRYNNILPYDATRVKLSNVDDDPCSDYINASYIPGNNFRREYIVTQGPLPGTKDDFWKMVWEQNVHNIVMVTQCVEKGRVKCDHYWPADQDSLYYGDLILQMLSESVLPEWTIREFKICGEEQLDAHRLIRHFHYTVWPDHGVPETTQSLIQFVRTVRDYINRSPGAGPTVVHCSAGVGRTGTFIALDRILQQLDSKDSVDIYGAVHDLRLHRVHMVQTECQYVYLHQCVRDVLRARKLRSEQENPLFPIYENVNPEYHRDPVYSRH
Endpoint: IC50

Structure smiles string: COC(=O)N[C@@H](Cc1ccccc1)C(=O)N[C@@H](Cc1ccc(NS(=O)(=O)O)cc1)c1nc(-c2ccccc2)cs1
Result value: < 2 pM

FYI, the data here is from patent US10220048B2.
